System: Wnt5a (protein binding on small-molecule microarray)
Experiment: Wnt5a binders on small-molecule microarray, primary screen, biophysical, 635/667 nm fluorescence (AID 1142);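 also: fluorescence read at 667 nm with signal to noise per printed feature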
Conditions: 635 nm fluorescence, higher = more signal
Would you mind telling me the reported composite z-score of each entry?
API doc: respond with a numeric literal and nothing else, no unit.

Input: # value lookup — system Wnt5a (protein binding on small-molecule microarray), readout composite z-score, item COCCOC(=O)N1C(=O)[C@@]2(c3cc(C#CCNC(N)=O)ccc31)[C@H](C(=O)NC[C@H](O)c1ccccc1)[C@H]1C(=O)O[C@H](c3ccccc3)[C@H](c3ccccc3)N1[C@@H]2c1ccc(O)cc1
Output: 0.226

Input: Return composite z-score measured with Wnt5a (protein binding on small-molecule microarray) given this compound: CN1C=C(C(=O)OCCS(C)(=O)=O)C(C(=O)OCCS(C)(=O)=O)=CC(CCCO)=CC1c1cccs1 (stereo unspecified)
Output: 0.131

Input: Missing value: composite z-score, Wnt5a (protein binding on small-molecule microarray), entry COC(=O)[C@@]1(CCC(=O)OC(C)(C)C)COC(c2ccc(OCCCO)cc2)=N1 . Fill in?
Output: -0.328

Input: Requested read-out composite z-score, target or system Wnt5a (protein binding on small-molecule microarray), entry CCN(CC)c1ccc(N2CC=CC34O[C@@H]5C=CCOC(=O)[C@@H]5[C@H]3C(=O)N(C(CO)C(C)C)[C@@H]4C2=O)cc1 (stereo partly specified)
Output: -0.191

Input: API: value(readout= composite z-score, system= Wnt5a (protein binding on small-molecule microarray), query= COCCCN1C(=O)[C@@]2(Cc3ccccc31)c1ccccc1C(=O)N(Cc1ccccc1Cl)[C@H]2c1ccc(CO)cc1 )
Output: 0

Input: Any idea what composite z-score came out for [N-]=[N+]=NCc1ccccc1C[C@@]1(C(=O)NCc2ccccc2)N=C(c2ccc(OCCCO)cc2)O[C@@H]1c1ccccc1 on Wnt5a (protein binding on small-molecule microarray)?
Output: 0.238

Input: # returns recorded composite z-score (system: Wnt5a (protein binding on small-molecule microarray)) for C=C(COC)C(=O)CC[C@H](OC(=O)c1cccnc1)c1cccc(OCCO)c1
Output: 1

Input: Give composite z-score (Wnt5a (protein binding on small-molecule microarray)) of the following compound: COc1c(C)cc(-c2cc3c(c(CCc4ccccc4)n2)[Si](C(C)C)(C(C)C)OC3)cc1C
Output: -0.0652

Input: Checklist item: composite z-score tested on Wnt5a (protein binding on small-molecule microarray), entry C/C=C/[C@@H](CCn1cc(CCO[Si](C(C)C)(C(C)C)C(C)C)nn1)[Si](C)(C)c1ccc(OC)cc1 , value?
Output: -0.569

Input: For the record O=C1N(CCS(=O)(=O)c2ccccc2)Cc2ccccc2[C@@H]2OC(c3ccc(OCCCO)cc3)=N[C@]12Cc1ccccc1 , what value of composite z-score is listed for Wnt5a (protein binding on small-molecule microarray)?
Output: 1.14

Input: Value wanted: composite z-score (Wnt5a (protein binding on small-molecule microarray)) of entry COC(=O)c1c(CC[C@@H](CO)NC(=O)Nc2ccc(OC)cc2)oc(C(=O)Cc2ccccc2)c1C(=O)OC
Output: 0.0603
